Let's look at some compounds and their measured IC50.
- System: Pim 3 (Homo sapiens, UniProt Q86V86)
The reply should consist of the numeric value with the unit placed after it.

Known results for compounds:
Record C[C@H]1CN(c2ccncc2NC(=O)c2ccc(F)c(-c3c(F)cc([C@H](O)CO)cc3F)n2)C[C@@H](N)[C@@H]1O / Pim 3 (Homo sapiens, UniProt Q86V86), IC50 recorded as 1.03 nM

The value of IC50 recorded for CC(C)OCc1cc(F)c(-c2nc(C(=O)Nc3cnccc3[C@@H]3C[C@H](C)C[C@H](N)C3)ccc2F)c(F)c1 when tested on Pim 3 (Homo sapiens, UniProt Q86V86) reads 1.03 nM

Below: the item to evaluate.
Entry COc1ccc(F)c(-c2nc(C(=O)Nc3cnccc3N3C[C@@H](N)[C@H](O)[C@@H](C)C3)ccc2F)c1F ; assay system Pim 3 (Homo sapiens, UniProt Q86V86); IC50 recorded at 0.37 nM

====

What follows is a record of IC50 for UniProtKB Q9P1W9.
Sequence (Q9P1W9 whole entry): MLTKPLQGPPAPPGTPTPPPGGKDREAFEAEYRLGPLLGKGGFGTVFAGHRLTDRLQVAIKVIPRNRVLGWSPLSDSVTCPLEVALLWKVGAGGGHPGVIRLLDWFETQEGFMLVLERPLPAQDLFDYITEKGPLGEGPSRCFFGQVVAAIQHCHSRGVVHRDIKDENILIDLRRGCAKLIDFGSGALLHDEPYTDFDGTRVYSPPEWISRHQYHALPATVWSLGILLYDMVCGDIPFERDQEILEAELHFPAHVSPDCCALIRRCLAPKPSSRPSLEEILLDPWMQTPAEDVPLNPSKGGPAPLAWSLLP
Return type: number; implicit unit nM.

Consider the worked cases shown below.
Field IC50 (UniProtKB Q9P1W9), entry C[C@@H]1C[C@H](N)C[C@H](c2ccncc2NC(=O)c2ccc(F)c(-c3c(F)cc(OC4CCOC4)cc3F)n2)C1 (stereo in doubt) : 2.21

Observed IC50 on UniProtKB Q9P1W9, entry CCOC(C)(C)c1cc(F)c(-c2nc(C(=O)Nc3cnccc3[C@@H]3C[C@H](C)C[C@H](N)C3)ccc2F)c(F)c1 , equals 3.5

The observed IC50 for C[C@@H]1C[C@H](N)C[C@H](c2ccncc2NC(=O)c2ccc(F)c(-c3c(F)cc(OCC(C)(C)O)cc3F)n2)C1 when tested with UniProtKB Q9P1W9 stands at 3.28

C[C@@H]1C[C@H](N)C[C@H](c2ccncc2NC(=O)c2ccc(F)c(-c3c(F)cc(C4=CCCC4)cc3F)n2)C1 on UniProtKB Q9P1W9 gives IC50 = 3.74

The observed IC50 for C[C@@H]1C[C@H](N)C[C@H](c2ccncc2NC(=O)c2ccc(F)c(-c3c(F)cc([C@H](O)CO)cc3F)n2)C1 when tested with UniProtKB Q9P1W9 stands at 2.6

Then there is this molecule:
Bench note, UniProtKB Q9P1W9: C[C@H]1C[C@@H](c2ccncc2NC(=O)c2nc(-c3c(F)cc(OC4CCOCC4)cc3F)c(F)cc2N)C[C@@H](N)[C@@H]1O , IC50 reads 1.46

====

- System: Pim 1 (Homo sapiens)
- Sequence (P11309 whole entry): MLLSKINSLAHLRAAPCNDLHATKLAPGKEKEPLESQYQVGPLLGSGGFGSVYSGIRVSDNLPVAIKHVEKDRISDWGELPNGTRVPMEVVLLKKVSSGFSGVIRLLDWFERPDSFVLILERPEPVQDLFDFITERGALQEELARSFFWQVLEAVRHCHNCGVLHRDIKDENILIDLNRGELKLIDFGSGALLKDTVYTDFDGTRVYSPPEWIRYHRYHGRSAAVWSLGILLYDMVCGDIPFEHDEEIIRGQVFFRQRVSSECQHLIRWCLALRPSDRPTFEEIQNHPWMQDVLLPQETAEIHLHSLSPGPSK
Readout kind: pIC50
Note on units: pIC50 is unitless, being -log10 of a concentration expressed in mol/L.

Recorded pIC50, per entry:
Form field, pIC50 with Pim 1 (Homo sapiens), item COCc1cc(F)c(-c2nc(C(=O)Nc3cnccc3N3C[C@@H](N)[C@H](O)[C@@H](C)C3)ccc2F)c(F)c1 [Example 38] : 10.52

The reported pIC50 value, Pim 1 (Homo sapiens), for C[C@@H]1C[C@H](N)C[C@H](c2ccncc2NC(=O)c2ccc(F)c(-c3c(F)cc(OCC(F)(F)F)cc3F)n2)C1 [Example 196] reads 10.70

COC1(c2cc(F)c(-c3nc(C(=O)Nc4cnccc4N4C[C@@H](N)[C@H](O)[C@@H](C)C4)c(N)cc3F)c(F)c2)COC1 [Example 112] on Pim 1 (Homo sapiens) gives pIC50 = 11.00

Entry COC(=O)c1cc(F)c(-c2nc(C(=O)Nc3cnccc3N3C[C@@H](N)[C@H](O)[C@@H](C)C3)ccc2F)c(F)c1 [Example 215] ; assay system Pim 1 (Homo sapiens); pIC50 recorded at 10.22

Item: COCCOc1ccc(F)c(-c2nc(C(=O)Nc3cnccc3N3C[C@@H](N)[C@H](O)[C@@H](C)C3)ccc2F)c1F [Example 17] | System: Pim 1 (Homo sapiens) | pIC50: 10.52

Others:
Lab note: molecule C[C@@H]1C[C@H](N)C[C@H](c2ccncc2NC(=O)c2ccc(F)c(-c3c(F)cc([S@+](C)[O-])cc3F)n2)C1 [Example 227] tested on Pim 1 (Homo sapiens); recorded pIC50 was 9.80

Observed pIC50, Pim 1 (Homo sapiens), C[C@H]1C[C@@H](c2ccncc2NC(=O)c2ccc(F)c(-c3c(F)cc(C4(F)COC4)cc3F)n2)C[C@@H](N)[C@@H]1O [Example 136] : 10.10

The molecule C[C@@H]1C[C@H](N)C[C@H](c2ccncc2NC(=O)c2ccc(F)c(-c3c(F)cc(CC(C)(C)O)cc3F)n2)C1 [Example 84] on Pim 1 (Homo sapiens): pIC50 was 10.70

Measured on Pim 1 (Homo sapiens), C[C@@H]1C[C@H](N)C[C@H](c2ccncc2NC(=O)c2ccc(F)c(-c3c(F)cc4c(c3F)OCC4)n2)C1 [Example 179] has a documented pIC50 of 11.00

// pIC50 (Pim 1 (Homo sapiens)) for COCCc1cc(F)c(-c2nc(C(=O)Nc3cnccc3N3C[C@@H](N)[C@H](O)[C@@H](C)C3)ccc2F)c(F)c1 [Example 109] = 11.00
